Exercise: for every item that follows, state its recorded DC50.
# TESTED ON: IKZF3 (Aiolos) (Homo sapiens, UniProt Q9UKT9)
# Construct: Leu-Asp junction (codons ctcgac before the linker); mScarlet (behind P2A) (C, cleaved yes); expressed in transfected cells
# Sequence (Q96SW2 whole entry partner): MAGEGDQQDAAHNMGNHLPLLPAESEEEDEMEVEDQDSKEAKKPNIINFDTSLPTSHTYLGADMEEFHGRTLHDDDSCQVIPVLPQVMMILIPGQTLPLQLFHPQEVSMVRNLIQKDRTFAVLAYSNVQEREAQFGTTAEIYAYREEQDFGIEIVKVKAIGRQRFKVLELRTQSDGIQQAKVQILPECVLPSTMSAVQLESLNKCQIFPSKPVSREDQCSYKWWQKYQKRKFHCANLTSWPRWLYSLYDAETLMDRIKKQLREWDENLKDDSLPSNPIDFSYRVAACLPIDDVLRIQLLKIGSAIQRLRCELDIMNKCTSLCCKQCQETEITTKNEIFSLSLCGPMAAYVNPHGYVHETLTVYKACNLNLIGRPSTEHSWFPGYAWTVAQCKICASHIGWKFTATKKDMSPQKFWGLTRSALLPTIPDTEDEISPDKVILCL
# Sequence (Q16531 whole entry partner): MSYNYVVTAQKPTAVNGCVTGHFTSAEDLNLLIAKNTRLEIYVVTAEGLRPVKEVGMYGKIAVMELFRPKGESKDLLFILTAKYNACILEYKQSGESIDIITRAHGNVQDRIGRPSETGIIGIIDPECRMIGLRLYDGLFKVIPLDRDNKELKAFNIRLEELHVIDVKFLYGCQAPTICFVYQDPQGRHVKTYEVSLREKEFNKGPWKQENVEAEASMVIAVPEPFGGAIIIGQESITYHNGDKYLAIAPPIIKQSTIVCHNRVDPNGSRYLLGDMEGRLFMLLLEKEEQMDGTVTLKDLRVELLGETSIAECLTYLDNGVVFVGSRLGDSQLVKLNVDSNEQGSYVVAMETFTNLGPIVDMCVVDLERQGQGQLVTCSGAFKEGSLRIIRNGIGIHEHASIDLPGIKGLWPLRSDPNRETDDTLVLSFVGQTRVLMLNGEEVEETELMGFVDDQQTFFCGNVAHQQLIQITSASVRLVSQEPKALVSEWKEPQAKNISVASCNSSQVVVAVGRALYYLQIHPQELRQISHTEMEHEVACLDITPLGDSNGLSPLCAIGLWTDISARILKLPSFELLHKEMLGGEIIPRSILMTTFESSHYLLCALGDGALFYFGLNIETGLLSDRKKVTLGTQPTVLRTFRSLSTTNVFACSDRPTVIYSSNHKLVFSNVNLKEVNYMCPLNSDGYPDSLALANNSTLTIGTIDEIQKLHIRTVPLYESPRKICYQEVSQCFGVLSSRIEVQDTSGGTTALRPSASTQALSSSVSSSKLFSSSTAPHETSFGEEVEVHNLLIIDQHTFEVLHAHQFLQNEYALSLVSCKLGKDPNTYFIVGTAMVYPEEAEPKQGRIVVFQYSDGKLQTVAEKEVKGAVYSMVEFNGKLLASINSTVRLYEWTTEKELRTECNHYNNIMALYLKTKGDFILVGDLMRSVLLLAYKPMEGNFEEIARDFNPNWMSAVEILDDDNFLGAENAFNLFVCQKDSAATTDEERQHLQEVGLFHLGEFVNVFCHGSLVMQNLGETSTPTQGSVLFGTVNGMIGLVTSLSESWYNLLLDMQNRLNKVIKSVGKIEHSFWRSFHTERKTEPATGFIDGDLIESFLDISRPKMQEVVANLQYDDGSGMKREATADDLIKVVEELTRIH
# Sequence (Q9UKT9 whole entry): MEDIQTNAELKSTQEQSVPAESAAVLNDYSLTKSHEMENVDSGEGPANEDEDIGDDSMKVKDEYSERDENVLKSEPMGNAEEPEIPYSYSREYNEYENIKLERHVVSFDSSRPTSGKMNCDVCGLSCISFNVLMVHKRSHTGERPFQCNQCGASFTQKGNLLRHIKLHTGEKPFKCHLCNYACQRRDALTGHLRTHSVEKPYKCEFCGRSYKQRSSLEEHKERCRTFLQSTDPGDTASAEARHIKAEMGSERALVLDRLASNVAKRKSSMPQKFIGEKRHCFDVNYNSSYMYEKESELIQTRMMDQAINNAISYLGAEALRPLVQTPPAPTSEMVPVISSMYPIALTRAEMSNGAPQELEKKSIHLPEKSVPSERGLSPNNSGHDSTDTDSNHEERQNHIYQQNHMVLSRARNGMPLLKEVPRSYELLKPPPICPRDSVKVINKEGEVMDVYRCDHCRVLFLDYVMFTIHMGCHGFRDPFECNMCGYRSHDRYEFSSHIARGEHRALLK
# EXPERIMENT: IKZF3 reporter degradation assay (HEK 293T IKZF3-mNeonGreen reporter cell line)
# Type: cell-based
# MEASUREMENT SETUP: HEK 293T IKZF3-mNeonGreen reporter, 24 hours incubation

Could you tell me which DC50 is on file for O=C1CCC(N2Cc3cc(OC4CCCCC4N4CC(c5cncc(C(F)(F)F)c5)C4)ccc3C2=O)C(=O)N1 (stereo not drawn) ? > 30 µM

Next compound: O=C1CCC(N2Cc3cc(O[C@@H]4CCCC[C@@H]4N4CC(c5ccncc5Cl)C4)ccc3C2=O)C(=O)N1 (mixture of isomers) > 30 µM

One more compound: N#CC1(C(=O)N2CCC(C3CN([C@H]4CCCC[C@@H]4Oc4ccc5c(c4)CN(C4CCC(=O)NC4=O)C5=O)C3)CC2)CC1 (stereo partly drawn) 0.11 µM

What about O=C1CCC(N2Cc3cc(O[C@@H]4CCCC[C@H]4N4CC(c5ccc(C(F)(F)F)cn5)C4)ccc3C2=O)C(=O)N1 (single isomer, unassigned) [Compound 128-B] ? > 30 µM

Quick one: O=C1NC(=O)C2(N3Cc4cc(OC5CCCC5N5CC(c6ccncc6)C5)ccc4C3=O)CC1C2 (stereo not drawn) > 30 µM

Thanks! And O=C1CCC(N2Cc3cc(O[C@@H]4CCCC[C@H]4N4CC(c5ccc(C(F)(F)F)nc5)C4)ccc3C2=O)C(=O)N1 (single isomer, unassigned) [Compound 125-B] ? > 30 µM

Sourced from patent US20250100996A1
